Source of measurements: paper PMC8951750

Below, each entry is listed with its recorded decrease of colonies number of SK-MEL-2 cells (colony formation).
- System: SK-MEL-2 cells
- assay explanation: Soft agar assay, colony formation of cancer cells
- Type: cell-based, human
- test settings: compound 0.1 µM, 14 days
quantity: decrease of colonies number of SK-MEL-2 cells (colony formation)

compound="COC1C(O)C(CO)OC(OC2C(O)C(CO)OC(OC3C(C)OC(OC4C(OC5CCC6(C)C7CCC89C(=O)OC(C)(C=CC=C(C)C)C8C(OC(C)=O)CC9(C)C7=CCC6C5(C)C)OCC(O)C4O)C(OC4OCC(O)C(O)C4O)C3O)C2O)C1O (stereo not shown) [Compound 1]" recorded_value=64%
compound="COC1C(O)COC(OC2C(O)C(COS(=O)(=O)O)OC(OC3C(C)OC(OC4C(OC5CCC6(C)C7CCC89C(=O)OC(C)(C=CC=C(C)C)C8C(OC(C)=O)CC9(C)C7=CCC6C5(C)C)OCC(O)C4O)C(O)C3O)C2O)C1O (stereo not shown) [Compound 3]" recorded_value=34%
compound="COC1C(O)C(CO)OC(OC2C(O)C(CO)OC(OC3C(C)OC(OC4C(OC5CCC6(C)C7CCC89C(=O)OC(C)(C=CC=C(C)C)C8C(OC(C)=O)CC9(C)C7=CCC6C5(C)C)OCC(O)C4O)C(OC4OCC(O)C(O)C4O)C3O)C2O)C1O (stereo not shown) [Compound 4, cucumarioside D]" recorded_value=70%
compound="C=C(C)C1C2CC3(C)C4=CCC5C(C)(C)C(OC6OCC(O)C(O)C6OC6OC(C)C(OC7OC(CO)C(O)C(O)C7O)C(O)C6OC6OCC(O)C(O)C6O)CCC5(C)C4CCC13C(=O)O2 (stereo not shown) [Compound 8]" recorded_value=3%
